// reported pIC50 for each item listed
Molecular target: T1, human DLL4, full length, on cells (human, UniProt Q9NR61 27-685)
T1 construct: also called huDLL4 cells; human DLL4-293G
T1 sequence (Q9NR61 27-685 limits assumed): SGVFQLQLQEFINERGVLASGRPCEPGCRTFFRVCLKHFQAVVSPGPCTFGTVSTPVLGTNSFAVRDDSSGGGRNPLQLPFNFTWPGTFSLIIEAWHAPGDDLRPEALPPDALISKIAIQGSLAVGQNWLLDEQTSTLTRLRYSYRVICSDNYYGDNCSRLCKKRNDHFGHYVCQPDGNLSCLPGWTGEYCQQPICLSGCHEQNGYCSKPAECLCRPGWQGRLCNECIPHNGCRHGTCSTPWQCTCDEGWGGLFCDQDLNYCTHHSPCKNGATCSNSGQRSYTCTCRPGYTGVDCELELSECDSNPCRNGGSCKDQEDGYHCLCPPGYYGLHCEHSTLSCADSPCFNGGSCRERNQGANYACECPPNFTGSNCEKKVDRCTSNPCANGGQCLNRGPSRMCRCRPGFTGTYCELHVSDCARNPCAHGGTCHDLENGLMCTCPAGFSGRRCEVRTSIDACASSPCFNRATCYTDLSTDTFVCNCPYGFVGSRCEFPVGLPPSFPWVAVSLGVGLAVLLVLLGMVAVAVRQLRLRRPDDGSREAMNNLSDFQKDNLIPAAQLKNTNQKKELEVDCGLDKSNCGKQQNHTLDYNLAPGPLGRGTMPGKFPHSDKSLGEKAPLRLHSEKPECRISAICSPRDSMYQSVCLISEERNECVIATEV
Assay: competition FACS: huNotch-1-biotin to DLL4 cells
Quick note: pIC50 values are minus log10 of concentrations in mol/L.

Previously resolved entries follow.
14A11 rat anti-DLL4 monoclonal antibody (antibody, rat IgG2a, V domains shown, rat IgG2a/K hybridoma mAb; also called MC13-14A11.3A4) VH: EVQLQQSGPELAKPGSSVKISCKASGYTFTNSYISWIKQTTGQGLEYVGYINTGSGGADYNEKFKGKATLTVDKSSRTAFMQLSSLTPGDSAVYYCAKSILLGSTCYFDYWGQGVLVTVSS VL: NTVLTQSPALAVSLGQRVTISCKASRSVSSPMYSYIYWYQQKPGQQPKLLIYRASTLASGVPARFSGSGSGTDFTLNIDPVEADDIATYFCQQSWSDPFTFGSGTKLEIKR : 6.69
1A11 rat anti-DLL4 monoclonal antibody (antibody, rat IgG1, V domains shown, rat IgG1/K hybridoma mAb; also called MC13-1A11.2E1; 1A11 (rat mAb)) VH: EVQLVESGGGLVQPGRSMKLSCAASGFTFRNFPMAWVRQAPTRGLEWVATISSSDGTTYYRDSVKGRFTISRDNAKSTLYLQVNSLRSEDTATYYCSRGYYNSPFAYWGQGTLVTVSS VL: DIQMTQSPASLSASLGETVTIECRASEDIYSNLAWYQQKPGNSPQLLIFDTNNLADGVPSRFSGSGSGTQSSLKINSLQSEDVASYFCQQYNNYPPTFGGGTKLELKR : 8.08

Here's the next entry for you.
[Q] Data request, read-out pIC50, for 15D6 rat anti-DLL4 monoclonal antibody (antibody, rat IgG2a, V domains shown, rat IgG2a/K hybridoma mAb; also called MC13-15D6.1G7) VH: EVQLQQSGPELAKPGSSVKISCKASGYTFTSSYISWIKQTTGQGLEYIGYINTGSGGTDYNEKFKDKATLTVDKSSRTVFMQLSSLTPGDSAVYYCAKSILLGSTYYLDYWGQGVMVTVSS VL: DTVLTQSPALAVSLGQRVTISCKASRSLSSPMYSYIYWYQQKLGQQPRLLIYRASTLASGVPARFSGSGSGTDFTLNIDPVEADDIATYFCQQSWSDPFTFGSGTKLEIKR
[A] 7.60

The values you see were collected from patent US20110217237A1.
